Molecular target: human GPR84 receptor (Homo sapiens, UniProt Q9NQS5)
Construct: host or cells: HEK293 cells, transient transfection
Sequence (Q9NQS5 whole entry): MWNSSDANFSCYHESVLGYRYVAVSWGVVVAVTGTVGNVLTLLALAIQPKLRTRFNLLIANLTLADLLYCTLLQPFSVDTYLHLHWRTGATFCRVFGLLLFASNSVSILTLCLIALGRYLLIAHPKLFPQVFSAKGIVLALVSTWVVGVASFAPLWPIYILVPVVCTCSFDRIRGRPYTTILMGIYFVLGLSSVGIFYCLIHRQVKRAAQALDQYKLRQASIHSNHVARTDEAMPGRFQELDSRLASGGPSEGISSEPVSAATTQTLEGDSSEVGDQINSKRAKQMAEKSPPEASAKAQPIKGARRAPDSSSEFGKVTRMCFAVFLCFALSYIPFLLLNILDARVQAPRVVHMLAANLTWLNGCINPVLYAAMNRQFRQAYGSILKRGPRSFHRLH
Experiment: Gαi biosensor BRET assay in transfected HEK293 cells (antagonism of GPR84 agonist ZQ-16)
Type: cell-based
Settings: HEK293, single concentration, code F = 10 μM, 200 nmol/L ZQ-16
Entries annotated with measured inhibition at 10 µM

>  <smiles.repr>
Cc1cc(F)c(C#CC2CC2)cc1NC(=O)c1cn(CC2OCC3(CC3)CO2)nn1

>  <inhibition at 10 µM>
≤ 25%

$$$$
>  <smiles.repr>
CCc1ccc(C#CC2CC2)cc1N(C)C(=O)c1cn(CC2OCC3(CC3)CO2)nn1

>  <inhibition at 10 µM>
> 75%

$$$$
>  <smiles.repr>
CN(C(=O)c1cn(CC2OCC3(CC3)CO2)nn1)c1cc(C#CC2CC2)ccc1C1CC1

>  <inhibition at 10 µM>
> 75%

$$$$
>  <smiles.repr>
O=C(Nc1c(F)cc(C#CC2CC2)cc1F)c1cn(CC2OCC3(CC3)CO2)nn1

>  <inhibition at 10 µM>
≤ 25%

$$$$
>  <smiles.repr>
Cc1ccc(C#CC2CC2)cc1N(C)C(=O)c1ccc(OCC(=O)N(C)C)nc1C

>  <inhibition at 10 µM>
≤ 25%

$$$$
>  <smiles.repr>
O=C(Nc1cc(C#CC2CC2)ccc1Cl)c1cn(CC2OCC3(CC3)CO2)nn1

>  <inhibition at 10 µM>
≤ 25%

$$$$
>  <smiles.repr>
O=C(c1cn(CC2OCC3(CC3)CO2)nn1)N1CCCc2c(C#CC3CC3)cccc21

>  <inhibition at 10 µM>
50 to 75%

$$$$
>  <smiles.repr>
Cc1cc(C#CC2CC2)ccc1N(C)S(=O)(=O)c1cn(CC2OCC3(CC3)CO2)nn1

>  <inhibition at 10 µM>
> 75%

$$$$

Data provenance: patent US20260028330A1
